Each recorded value in this set is attributed to patent US10494355B2.

# target: human recombinant HDAC6 (Homo sapiens, UniProt Q9UBN7)
# measurementNotes: HDAC6 enzyme activity inhibition assay (HDAC Fluorimetric Drug Discovery Kit)
# measurementSetup: 30° C. 60 minutes
pIC50: −log10 of the molar value.
propertyName: pIC50

# compoundSmiles, pIC50
records = [
    ("Cc1ccccc1C1(Nc2ncc(-c3nnc(C(F)F)o3)cn2)CC1", 7.51),
    ("Fc1ccc(C2(Nc3ncc(-c4nnc(C(F)(F)F)o4)cn3)CCC2)cc1Cl", 6.12),
    ("CC(C)N1CCC(c2ccc(C3(Nc4ncc(-c5nnc(C(F)F)o5)cn4)CCC3)cc2)CC1", 6.40),
    ("FC(F)(F)c1nnc(-c2cnc(NC3(c4ccc(Cl)c(Cl)c4)CCC3)nc2)o1", 5.71),
    ("O=C(OCc1ccccc1)N1CCC(Nc2ncc(-c3nnc(C(F)F)o3)cn2)(c2ccccc2)CC1", 6.57),
]

a: FC(F)c1nnc(-c2cnc(NC3(c4ccc(Cl)cc4)CCC3)nc2)o1
b: FC(F)(F)c1cccc(C2(Nc3ncc(-c4nnc(C(F)(F)F)o4)cn3)CC2)c1
Task: Hi team, can someone confirm which has the larger pIC50: a or b ? Thanks. Answer format: the label of the selected item.
Output: a
(a: 7.36, b: 6.35)

1: Cc1ccccc1C1(Nc2ncc(-c3nnc(C(F)F)o3)cn2)CCC1
2: FC(F)c1nnc(-c2cnc(NC3(c4cccc(Cl)c4)CC3)nc2)o1
3: Fc1ccc(C2(Nc3ncc(-c4nnc(C(F)(F)F)o4)cn3)CC2)cc1
Task: Rank by pIC50 (largest to smallest). Note for the reader: the ranking is given by listing the labels in the order requested.
Output: 2, 1, 3

a: Fc1ccccc1C1(Nc2ncc(-c3nnc(C(F)F)o3)cn2)CC1
b: Fc1ccc(C2(Nc3ncc(-c4nnc(C(F)F)o4)cn3)CC2)c(F)c1
c: FC(F)c1nnc(-c2cnc(NC3(c4ccc(Cl)cc4Cl)CCC3)nc2)o1
d: Fc1ccc(C2(Nc3ncc(-c4nnc(C(F)(F)F)o4)cn3)CC2)cc1F
Task: Order the records so the highest pIC50 appears first and the lowest last. Reply with the labels, ordered as the question asks.
Output: a, b, c, d
(a: 7.68, b: 7.37, c: 6.70, d: 6.38)

====

# target: human recombinant HDAC6 (Homo sapiens, UniProt Q9UBN7)
# Sequence (Q9UBN7 1-1215): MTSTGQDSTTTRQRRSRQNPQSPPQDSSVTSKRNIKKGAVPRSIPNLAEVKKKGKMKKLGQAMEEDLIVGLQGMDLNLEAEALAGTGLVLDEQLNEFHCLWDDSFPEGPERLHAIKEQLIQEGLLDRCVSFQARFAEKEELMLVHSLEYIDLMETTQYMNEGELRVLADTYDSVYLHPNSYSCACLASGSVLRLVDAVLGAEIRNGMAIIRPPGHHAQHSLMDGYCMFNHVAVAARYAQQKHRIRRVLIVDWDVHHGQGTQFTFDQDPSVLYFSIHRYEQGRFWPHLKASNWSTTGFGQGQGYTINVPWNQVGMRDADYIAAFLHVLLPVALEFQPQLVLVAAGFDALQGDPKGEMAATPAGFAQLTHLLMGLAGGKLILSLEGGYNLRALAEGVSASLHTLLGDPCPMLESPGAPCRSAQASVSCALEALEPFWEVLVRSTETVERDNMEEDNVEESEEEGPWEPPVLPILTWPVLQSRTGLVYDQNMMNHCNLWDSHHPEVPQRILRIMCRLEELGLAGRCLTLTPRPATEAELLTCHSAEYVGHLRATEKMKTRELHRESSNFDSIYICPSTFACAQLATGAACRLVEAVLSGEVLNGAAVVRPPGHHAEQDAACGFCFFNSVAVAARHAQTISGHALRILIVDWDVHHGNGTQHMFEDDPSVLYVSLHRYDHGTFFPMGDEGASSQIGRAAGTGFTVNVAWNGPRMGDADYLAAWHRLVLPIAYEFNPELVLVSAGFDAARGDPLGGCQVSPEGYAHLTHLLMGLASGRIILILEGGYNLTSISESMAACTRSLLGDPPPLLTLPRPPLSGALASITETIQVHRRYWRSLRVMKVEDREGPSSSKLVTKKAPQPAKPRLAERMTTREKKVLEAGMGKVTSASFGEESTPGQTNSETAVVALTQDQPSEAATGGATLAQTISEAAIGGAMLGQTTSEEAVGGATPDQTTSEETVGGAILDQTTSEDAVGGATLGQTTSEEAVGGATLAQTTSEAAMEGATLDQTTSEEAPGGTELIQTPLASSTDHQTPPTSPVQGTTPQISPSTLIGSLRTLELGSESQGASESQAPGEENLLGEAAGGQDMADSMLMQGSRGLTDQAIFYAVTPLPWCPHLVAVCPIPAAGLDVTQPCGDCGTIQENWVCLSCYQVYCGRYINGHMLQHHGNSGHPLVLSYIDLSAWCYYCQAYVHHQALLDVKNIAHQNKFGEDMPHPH
# measurementNotes: HDAC6 enzyme activity inhibition assay (HDAC Fluorimetric Drug Discovery Kit)
# measurementSetup: 30° C. 60 minutes
propertyName: IC50 (nM)

For orientation, consider the following solved cases.
# molecule, target, valueUnits, IC50
records = [
    ("FC(F)(F)c1nnc(-c2cnc(NC3(c4ccc(Cl)cc4)CC3)nc2)o1 [Compound 2053]", "human recombinant HDAC6 (Homo sapiens, UniProt Q9UBN7)", "nM", 519),
    ("FC(F)c1nnc(-c2cnc(NC3(c4ccc(Cl)c(Cl)c4)CCC3)nc2)o1 [Compound 1834]", "human recombinant HDAC6 (Homo sapiens, UniProt Q9UBN7)", "nM", 120),
]

A: Fc1cc(F)cc(C2(Nc3ncc(-c4nnc(C(F)F)o4)cn3)CCC2)c1 [Compound 1819]
B: Fc1ccc(C2(Nc3ncc(-c4nnc(C(F)(F)F)o4)cn3)CC2)cc1Cl [Compound 1723]
Task: Consider A and B . Which of these has its IC50 at a higher number? In your reply, give the label of the chosen option.
Output: B
(B: 219 nM, A: 70 nM)

====

# target: human recombinant HDAC6 (Homo sapiens, UniProt Q9UBN7)
# measurementNotes: HDAC6 enzyme activity inhibition assay (HDAC Fluorimetric Drug Discovery Kit)
# measurementSetup: 30° C. 60 minutes
propertyName: IC50 (µM)

I: FC(F)(F)c1ccc(C2(Nc3ncc(-c4nnc(C(F)(F)F)o4)cn3)CC2)cc1 [Compound 1742]
II: COc1ccc(C2(Nc3ncc(-c4nnc(C(F)(F)F)o4)cn3)CCC2)cc1 [Compound 1604]
Task: Could you determine which record has the numerically smaller IC50? Candidates: I and II Reply briefly: the label of your chosen item.
Output: II

====

# target: human recombinant HDAC6 (Homo sapiens, UniProt Q9UBN7)
# measurementNotes: HDAC6 enzyme activity inhibition assay (HDAC Fluorimetric Drug Discovery Kit)
# measurementSetup: 30° C. 60 minutes
propertyName: IC50 (nM)

# compound, valueUnits, IC50
measured = [
    ("COc1ccccc1C1(Nc2ncc(-c3nnc(C(F)F)o3)cn2)CC1", "nM", 32),
    ("COc1ccc(C2(Nc3ncc(-c4nnc(C(F)F)o4)cn3)CCC2)cc1", "nM", 50),
    ("FC(F)c1nnc(-c2cnc(NC3(c4ccc(C(F)(F)F)cc4)CCC3)nc2)o1", "nM", 277),
    ("Fc1ccc(C2(Nc3ncc(-c4nnc(C(F)F)o4)cn3)CC2)cc1F [Compound 1779]", "nM", 134),
    ("Cc1ccccc1C1(Nc2ncc(-c3nnc(C(F)(F)F)o3)cn2)CCC1", "nM", 234),
    ("FC(F)c1nnc(-c2cnc(NC3(c4ccc(N5CCOCC5)cc4)CCC3)nc2)o1", "nM", 256),
    ("Fc1ccc(C2(Nc3ncc(-c4nnc(C(F)F)o4)cn3)CC2)cc1", "nM", 26),
    ("FC(F)c1nnc(-c2cnc(NC3(Cc4ccccc4)CCC3)nc2)o1", "nM", 758),
]

1: FC(F)c1nnc(-c2cnc(NC3(c4ccccc4)CCNCC3)nc2)o1
2: Fc1cc(C2(Nc3ncc(-c4nnc(C(F)F)o4)cn3)CC2)ccc1Cl
Task: Between 1 and 2 , which one shows the smaller IC50 number? Write the label of whichever entry you select.
Output: 2
(2: 83 nM, 1: 225 nM)

I: FC(F)c1nnc(-c2cnc(NC3(c4cccs4)CC3)nc2)o1
II: Fc1ccc(Cl)c(C2(Nc3ncc(-c4nnc(C(F)(F)F)o4)cn3)CCC2)c1
Task: Of I and II , whose reported IC50 is the larger number? API: response body contains the label of the selected item.
Output: II

I: FC(F)(F)c1cccc(C2(Nc3ncc(-c4nnc(C(F)(F)F)o4)cn3)CCC2)c1
II: Fc1cccc(C2(Nc3ncc(-c4nnc(C(F)(F)F)o4)cn3)CCC2)c1
Task: API: POST /compare with I and II ; response names the item with higher IC50. Answer with the label corresponding to your selection.
Output: I
(I: 596 nM, II: 154 nM)

1: Fc1c(Cl)cccc1C1(Nc2ncc(-c3nnc(C(F)(F)F)o3)cn2)CCC1
2: FC(F)c1nnc(-c2cnc(NC3(c4cccc(Cl)c4Cl)CCC3)nc2)o1
Task: Between 1 and 2 , which one has the lower reported IC50 value? Your answer should be the label of the entry you select.
Output: 2
(2: 100 nM, 1: 1470 nM)
